- system tested: CB2 receptor (Homo sapiens)
- Construct: host or cells: CHO-K1-CB2
- experiment: cAMP assay (HitHunter) in CHO-K1-CB2 cells, agonist and antagonist modes
- Assay type: cell-based
- test parameters: agonist or antagonist mode; antagonist mode against CP-55940 at EC90; read-out: CB2 EC50
reported property: pEC50
Note on units: pEC50 is unitless, being -log10 of a concentration expressed in mol/L.

Request - read-out pEC50 | tested on CB2 receptor (Homo sapiens) | compound COc1ccc(C(=O)c2c(C)n(CCN3CCOCC3)c3cc(I)ccc23)cc1 [AM-630]
6.84

* * *

- system tested: CB2 receptor (Homo sapiens, UniProt P34972)
- Construct: host or cells: CHO-K1-CB2
- Sequence (P34972 whole entry): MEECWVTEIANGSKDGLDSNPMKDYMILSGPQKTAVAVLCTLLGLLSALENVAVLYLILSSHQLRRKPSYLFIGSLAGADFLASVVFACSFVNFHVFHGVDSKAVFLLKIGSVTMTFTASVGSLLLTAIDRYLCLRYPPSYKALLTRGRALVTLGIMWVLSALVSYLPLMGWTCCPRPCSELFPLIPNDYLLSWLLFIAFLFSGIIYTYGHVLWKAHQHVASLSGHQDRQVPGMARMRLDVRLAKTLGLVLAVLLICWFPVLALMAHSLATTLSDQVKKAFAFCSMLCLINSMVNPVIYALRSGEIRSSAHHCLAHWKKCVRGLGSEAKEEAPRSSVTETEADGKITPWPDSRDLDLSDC
- experiment: cAMP assay (HitHunter) in CHO-K1-CB2 cells, agonist and antagonist modes
- Type: cell-based
- test parameters: CB2 EC50 (μM), agonist or antagonist mode; antagonist mode against CP-55940 at EC90
reported property: EC50 (µM)
Provide only the numeric value, understood in µM.

Request - read-out EC50 | tested on CB2 receptor (Homo sapiens, UniProt P34972) | compound CCCCCc1cc2c(c(O)c1C(=O)O)[C@@H]1C=C(C)CC[C@H]1C(C)(C)O2 [Δ^9-THCA, Δ^9-tetrahydrocannabinolic acid]
30

* * *

- system tested: CB2 receptor (Homo sapiens)
- Construct: host or cells: CHO-K1-CB2
- experiment: cAMP assay (HitHunter) in CHO-K1-CB2 cells, agonist and antagonist modes
- Format: cell-based
- test parameters: CHO-K1-CB2 cells, forskolin 20 μM; NA = no activity
reported property: CB2 Mode of action

INSERT INTO measurements (compound, measurement) VALUES
  ('COc1ccc(C(=O)c2c(C)n(CCN3CCOCC3)c3cc(I)ccc23)cc1 [AM-630]', 'Antagonist'),
  ('C=C(C)[C@@H]1CCC(C)=C[C@H]1c1c(O)cc(CCCCC)cc1O [CBD, cannabidiol, reference compound]', 'Antagonist');

Origin of values: paper PMC6757234
